Test system: HTT CJ mRNA
Assay: Gene panel canonical junction qPCR assay: HTT
Type: cell-based
Details: Table 3, concentration having 50% response in CJ decrease, read-out: HTT IC50 (decrease in CJ mRNA levels)
measurement name: IC50

Field: example entries. Status: answers known.
compound | IC50
Cc1cn2cc(NC(=O)c3sc(N4CCNC(C)(C)C4)cc3F)cc(F)c2n1 | 1000 to 10000 nM
Cc1cn2cc(NC(=O)c3sc(N4C[C@H]5CC[C@@H](C4)N5)cc3F)cc(F)c2n1 | > 10 nM
CCNC1CCN(c2cc(F)c(C(=O)Nc3cc(F)c4nc(C)cn4c3)s2)CC1 | 1000 to 10000 nM
Cc1cn2cc(NC(=O)c3sc(N4CCNC(C)C4)cc3F)ncc2n1 (stereo not shown) | > 10 nM
Cc1cn2cc(NC(=O)c3sc(N4CCC(N5CCCC5)C4)cc3F)cc(F)c2n1 (stereo not shown) | > 10 nM

Provide the reported IC50 (system: HTT CJ mRNA) for Cc1cn2cc(NC(=O)c3sc([C@H]4CCN[C@H](C)C4)cc3F)cc(F)c2n1
100 to 1000 nM

Recall the reported IC50 of Cc1cn2cc(NC(=O)c3sc(N(C)C4CC(C)(C)NC(C)(C)C4)cc3F)cc(F)c2n1 when tested on HTT CJ mRNA.
> 10 nM

Please report IC50 with HTT CJ mRNA for item Cc1cn2cc(NC(=O)c3sc(N4CCNC5(CC5)C4)cc3F)cc(F)c2n1 .
> 10 nM

Enter measured IC50, system HTT CJ mRNA, for the compound shown: Cc1cn2cc(NC(=O)c3cc(F)c(C4CCNCC4)s3)cc(F)c2n1
100 to 1000 nM

Report its IC50 with HTT CJ mRNA as the test system: Cc1cn2cc(NC(=O)c3sc(C4CCNCC4)cc3F)nc2c(C)n1
100 to 1000 nM

Enter recorded IC50 with HTT CJ mRNA for COc1cc(N2CCNCC2=O)sc1C(=O)Nc1cc(F)c2nc(C)cn2c1 here.
> 10 nM

Lab note: HTT CJ mRNA assay, enter IC50 for Cc1cn2cc(NC(=O)c3sc(N4CCNC(C)C4)c(Cl)c3Cl)cc(F)c2n1 (stereo not shown) here
> 10 nM

Under HTT CJ mRNA, report IC50 for Cc1cn2cc(NC(=O)c3sc(N4CCNC(C)C4)cc3F)c(C)cc2n1 (stereo not shown)
> 10 nM
